Measured values drawn from patent US5374641A for this set.

Target: thromboxane synthetase (Homo sapiens)
Experiment: Test Example 2: Thromboxane synthetase inhibiting activity (human PRP, thrombin, RIA)
Type: cell-based
Conditions: 20 U/ml thrombin, RIA, read-out: Inhibition of thromboxane A2 synthesis (IC50)
Kindly supply the reported pIC50 values for the records listed here.
In simple prose, pIC50 is minus the logarithm base ten of a concentration in moles per litre.

Let me check: CCOC(=O)COc1ccc(C(CNS(=O)(=O)c2ccc(Cl)cc2)c2cccnc2)cc1 (stereo not drawn) [Example 4] , system thromboxane synthetase (Homo sapiens), measured pIC50 is 7.48

Summary line: O=C(O)COc1ccc(C(CCNS(=O)(=O)c2ccc(Cl)cc2)Cc2cccnc2)cc1 (stereo not drawn) [Example 8] , thromboxane synthetase (Homo sapiens), reported pIC50 = 5.37

The compound CCOC(=O)COc1ccc(C(NS(=O)(=O)c2ccc(Cl)cc2)c2cccnc2)cc1 (stereo not drawn) [Example 1] , tested on thromboxane synthetase (Homo sapiens), showed pIC50 of 7.43

====

Target: thromboxane synthetase (Homo sapiens, UniProt P24557)
Sequence (P24557 whole entry): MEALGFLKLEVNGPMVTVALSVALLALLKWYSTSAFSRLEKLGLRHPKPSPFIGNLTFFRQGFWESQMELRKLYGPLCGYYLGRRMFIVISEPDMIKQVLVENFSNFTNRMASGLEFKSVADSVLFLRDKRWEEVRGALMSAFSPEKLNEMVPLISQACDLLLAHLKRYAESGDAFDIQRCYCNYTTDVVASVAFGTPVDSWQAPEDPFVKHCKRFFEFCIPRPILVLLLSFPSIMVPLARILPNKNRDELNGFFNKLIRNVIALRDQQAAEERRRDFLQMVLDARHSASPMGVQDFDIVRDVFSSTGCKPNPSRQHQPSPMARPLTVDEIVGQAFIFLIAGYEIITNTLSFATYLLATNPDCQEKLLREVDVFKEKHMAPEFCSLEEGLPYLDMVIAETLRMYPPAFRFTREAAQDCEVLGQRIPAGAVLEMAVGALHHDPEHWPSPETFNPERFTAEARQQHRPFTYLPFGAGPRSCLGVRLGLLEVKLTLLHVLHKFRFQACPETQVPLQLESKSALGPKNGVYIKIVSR
Assay: Test Example 7: Thromboxane synthetase inhibiting activity (human PRP, thrombin, RIA)
Type: cell-based
Settings: 20 U/ml thrombin, RIA, read-out: Inhibition of thromboxane A2 synthesis (IC50)
Would you mind telling me the reported IC50 of each entry?
State just the number; it will be interpreted in µM.

C/C(=C\c1ccc(C(CNS(=O)(=O)c2ccc(Cl)cc2)Cc2cccnc2)cc1)C(=O)O (stereo not drawn) [Example 36] yielded IC50 of 8.3

compound CCOC(=O)/C(C)=C/c1ccc(C(CNS(=O)(=O)c2ccc(Cl)cc2)Cc2cccnc2)cc1 (stereo not drawn) [Example 37] , IC50 observed: 8.9

Note to self: IC50 recorded for CCOC(=O)/C(C)=C/c1ccc(C(CNS(=O)(=O)c2ccc(Cl)cc2)c2cccnc2)cc1 (stereo not drawn) [Example 40] was 1.5

====

Test system: platelet aggregation, induced by U-46619
Assay: Test Examples 4: Platelet aggregation inhibiting activity (guinea pig PRP, U-46619)
Type: cell-based
Conditions: Cavia porcellus, 320 nM U-46619, 37° C., read-out: Platelet aggregation activity IC50 (concentration of 50% inhibition of platelet aggregation, induced by U-46619)
pIC50: −log10 of the molar value.
Threshold check on pIC50: at or above 5 gives Fulfilled, strictly below gives Not fulfilled.

*Q* Please check the record CCOC(=O)Oc1ccc(C(CNS(=O)(=O)c2ccc(Cl)cc2)Cc2cccnc2)cc1 (stereo not shown) and state if its pIC50 is at or above 5.
*A* Not fulfilled

*Q* Could you verify whether the entry O=C(O)COc1ccc(CC(CCNS(=O)(=O)c2ccc(Cl)cc2)c2cccnc2)cc1 (stereo not shown) shows pIC50 of no less than 5?
*A* Not fulfilled

*Q* Confirm if pIC50 reported for the molecule O=C(O)COc1ccc(CC(CNS(=O)(=O)c2ccc(Cl)cc2)c2cccnc2)cc1 (stereo not shown) is 5 or above.
*A* Not fulfilled

*Q* Decide: pIC50 of O=C(O)COc1ccc(CC(NS(=O)(=O)c2ccccc2)c2cccnc2)cc1 (stereo not shown) >= 5?
*A* Fulfilled

*Q* Please indicate if the recorded pIC50 for CCOC(=O)Oc1ccc(CC(CNS(=O)(=O)c2ccc(Cl)cc2)c2cccnc2)cc1 (stereo not shown) meets or exceeds 5.
*A* Not fulfilled

*Q* Does the reported pIC50 for O=C(O)COc1ccc(CCC(NS(=O)(=O)c2ccc(Cl)cc2)c2cccnc2)cc1 (stereo not shown) fall at or above the 5 mark?
*A* Not fulfilled

*Q* Kindly determine if pIC50 recorded for O=C(O)c1ccc(CCC(NS(=O)(=O)c2ccc(Cl)cc2)c2cccnc2)cc1 (stereo not shown) is above or exactly 5.
*A* Fulfilled

*Q* Hello, I need to know if Cc1ccc(S(=O)(=O)NC(Cc2ccc(OCC(=O)O)cc2)c2cccnc2)cc1 (stereo not shown) has measured pIC50 not below 5. Thanks!
*A* Fulfilled

*Q* Would you say O=C(O)/C=C/c1ccc(CC(NS(=O)(=O)c2ccc(Cl)cc2)c2cccnc2)cc1 (stereo not shown) shows pIC50 at minimum 5?
*A* Fulfilled

*Q* Please tell me: is the molecule O=C(O)COc1ccc(C(CNS(=O)(=O)c2ccc(Cl)cc2)Cc2cccnc2)cc1 (stereo not shown) at or over 5 in terms of pIC50?
*A* Fulfilled

*Q* Threshold query (pIC50 >= 5) on O=C(O)c1ccc(CC(NS(=O)(=O)c2ccc(Cl)cc2)c2cccnc2)cc1 (stereo not shown)
*A* Fulfilled

*Q* Is reported pIC50 greater than or equal to 5 here: O=C(O)CCc1ccc(CC(NS(=O)(=O)c2ccc(Cl)cc2)c2cccnc2)cc1 (stereo not shown)
*A* Fulfilled

*Q* Entry O=C(O)Cc1ccc(CC(NS(=O)(=O)c2ccc(Cl)cc2)c2cccnc2)cc1 (stereo not shown) : is its pIC50 no less than 5?
*A* Fulfilled
